target: Pannexin-1 (Mus musculus); experiment: Inhibition of PANX1 in mouse B16-BL6 cells assessed as reduction in HOS-induced ATP release at 100 uM preincubated for 10 mins followed by HOS solution addition and measured after 30 mins by bioluminescence analysis; type: cell-based; conditions: time 40.0 min
Activity calls are given as the source filed them. No cut-off for these calls is given here. Bridge positions count the residues as written; N and C are the ends. Square brackets hold non-standard residues; d marks the D form. Triazole bridges read from a SMILES are 1,4-linked. Peptide text beside a SMILES is read from it. Lys(N3) = [N-]=[N+]=NCCCC[C@H](N)C(=O)O; Orn(N3) = [N-]=[N+]=NCCC[C@H](N)C(=O)O; Hpra = C#CCC[C@H](N)C(=O)O; Pra = C#CC[C@H](N)C(=O)O
Your response should consist of one outcome taken from active, inactive

Asked: Fill in: this test's call for CC(=O)N[C@@H](CO)C(=O)N[C@@H](Cc1c[nH]c2ccccc12)C(=O)N[C@@H](CCCNC(=N)N)C(=O)N[C@@H](CCC(N)=O)C(=O)N[C@@H](C)C(=O)N[C@H]1Cc2cn(nn2)CCC[C@@H](C(=O)N[C@@H](Cc2ccc(O)cc2)C(N)=O)NC(=O)[C@H](CC(=O)O)NC(=O)[C@H](C(C)C)NC(=O)[C@H](Cc2ccccc2)NC1=O (Ac-SWRQA[Pra]FVD[Orn(N3)]Y-NH2; triazole 6-10) is ___
Given back: inactive

Asked: Just curious, what result did CC(=O)N[C@@H](CO)C(=O)N[C@@H](Cc1c[nH]c2ccccc12)C(=O)N[C@@H](CCCNC(=N)N)C(=O)N[C@@H](CCC(N)=O)C(=O)N[C@@H](C)C(=O)N[C@@H](C)C(=O)N[C@@H](Cc1ccccc1)C(=O)N[C@H]1Cc2cn(nn2)CCCC[C@@H](C(N)=O)NC(=O)[C@H](Cc2ccc(O)cc2)NC(=O)[C@H](CO)NC(=O)[C@H](CC(=O)O)NC1=O (Ac-SWRQAAF[Pra]DSY[Lys(N3)]-NH2; triazole 8-12) get here?
Given back: inactive

Asked: Dear colleague, could you share the recorded outcome for CC(=O)N[C@H]1CCc2cn(nn2)CCCC[C@@H](C(=O)N[C@@H](C)C(=O)N[C@@H](Cc2ccccc2)C(=O)N[C@H](C(=O)N[C@@H](CC(=O)O)C(=O)N[C@@H](CO)C(=O)N[C@@H](Cc2ccc(O)cc2)C(N)=O)C(C)C)NC(=O)[C@H](CCC(N)=O)NC(=O)[C@H](CCCNC(=N)N)NC(=O)[C@H](Cc2c[nH]c3ccccc23)NC1=O (Ac-[Hpra]WRQ[Lys(N3)]AFVDSY-NH2; triazole 1-5) when you have a moment?
Given back: active

Asked: Please share the test call associated with CC(=O)N[C@@H](CO)C(=O)N[C@@H](Cc1c[nH]c2ccccc12)C(=O)N[C@@H](CCCNC(=N)N)C(=O)N[C@@H](CCC(N)=O)C(=O)N[C@@H](C)C(=O)N[C@H]1CCCCn2cc(nn2)C[C@@H](C(=O)N[C@@H](Cc2ccc(O)cc2)C(N)=O)NC(=O)[C@H](CC(=O)O)NC(=O)[C@H](C(C)C)NC(=O)[C@H](Cc2ccccc2)NC1=O (Ac-SWRQA[Lys(N3)]FVD[Pra]Y-NH2; triazole 6-10) .
Given back: active

Asked: Which result was noted for this compound in the test: CC(=O)N[C@H]1CCCCn2cc(nn2)C[C@@H](C(=O)N[C@@H](C)C(=O)N[C@@H](Cc2ccccc2)C(=O)N[C@H](C(=O)N[C@@H](CC(=O)O)C(=O)N[C@@H](CO)C(=O)N[C@@H](Cc2ccc(O)cc2)C(N)=O)C(C)C)NC(=O)[C@H](CCC(N)=O)NC(=O)[C@H](CCCNC(=N)N)NC(=O)[C@H](Cc2c[nH]c3ccccc23)NC1=O (Ac-[Lys(N3)]WRQ[Pra]AFVDSY-NH2; triazole 1-5)
Given back: active
